system: SK-MEL-5 melanoma; assay: NCI tumour cell line growth inhibition, 48 h
Please mark met if the recorded TGI is equal to or greater than 5 µM, and not met if it falls below.

Take a look at these entries with their results.
molecule="C/C=C(\\C)C(=O)N[C@H]1CC[C@]2(C)C3CC[C@@]4(C)C(CC[C@@H]4C(C)N(C)C)C3CCC2[C@H]1OC(C)=O (stereo partly drawn)" classification="not met"
molecule="CCOC12OC3=C(CC1CC1=C(CCC1=O)O2)C(=O)CC3 (stereo not drawn)" classification=met
molecule="COc1cc(C2=NN(C)C(c3ccc([N+](=O)[O-])o3)C2)cc(OC)c1OC (stereo not drawn)" classification=met

Is it the case that "O=[N+]([O-])c1ccc(Br)c([N+](=O)[O-])c1" has TGI reaching or exceeding 5 µM? met

Is it the case that "OC(c1nc2ccccc2s1)(C(F)(F)F)C(F)(F)F" has TGI reaching or exceeding 5 µM? met

Is it the case that "CC1=C(C)C(=O)O[C@@H]([C@](C)(O)[C@]2(O)CC[C@@]3(O)[C@@H]4C[C@H]5O[C@]56[C@@H](O)C=CC(=O)[C@]6(C)[C@H]4CC[C@]23C)C1" has TGI reaching or exceeding 5 µM? not met

Is it the case that "C=C1C(=O)O[C@H]2[C@H]1CC/C(COC(=O)CCCCC(=O)OC/C1=C/CC[C@@]3(C)O[C@H]3[C@H]3OC(=O)C(=C)[C@@H]3CC1)=C\CC[C@@]1(C)O[C@@H]21" has TGI reaching or exceeding 5 µM? met
